Listed below: Selectivity values for each entry.
Assay: Relative binding to mu and delta opioid receptors (ratio of Ki)
Square brackets hold non-standard residues; d marks the D form. Peptide text beside a SMILES is read from it. Dmt = Cc1cc(O)cc(C)c1C[C@H](N)C(=O)O; Tic = O=C(O)[C@@H]1Cc2ccccc2CN1
METRIC_NAME: Selectivity

>>> reading("Cc1cc(O)cc(C)c1C[C@H](N)C(=O)N1Cc2ccccc2C[C@H]1C(=O)NCCc1nc2ccccc2[nH]1")
82
>>> reading("Cc1cc(O)cc(C)c1C[C@H](N)C(=O)N1Cc2ccccc2C[C@H]1C(=O)N[C@@H](C)c1nc2ccccc2[nH]1")
6.5
>>> reading("Cc1cc(O)cc(C)c1C[C@H](N)C(=O)N1Cc2ccccc2C[C@H]1C(=O)N[C@@H](Cc1nc2ccccc2[nH]1)C(=O)O")
516
>>> reading("Cc1cc(O)cc(C)c1C[C@H](N)C(=O)N1Cc2ccccc2C[C@H]1C(=O)N[C@H](C)c1nc2ccccc2[nH]1")
5
>>> reading("CC(C)[C@H](NC(=O)[C@H](CC(=O)O)NC(=O)[C@H](Cc1ccccc1)NC(=O)[C@H](C)NC(=O)[C@@H](N)Cc1ccc(O)cc1)C(=O)N[C@H](C(=O)NCC(=O)O)C(C)C")
1140
>>> reading("Cc1cc(O)cc(C)c1C[C@H](N)C(=O)N1Cc2ccccc2C[C@H]1C(=O)N[C@@H](CC(=O)O)c1nc2ccccc2[nH]1")
122
>>> reading("Cc1cc(O)cc(C)c1C[C@H](N)C(=O)N1Cc2ccccc2C[C@H]1C(=O)N[C@H](C)C(N)=O (H-[Dmt]-[Tic]-[dA]-NH2)")
158
>>> reading("Cc1cc(O)cc(C)c1C[C@H](N)C(=O)N1Cc2ccccc2C[C@H]1C(=O)N[C@@H](CC(N)=O)C(=O)O (H-[Dmt]-[Tic]-Asn-OH)")
73
>>> reading("Cc1cc(O)cc(C)c1C[C@H](N)C(=O)N1Cc2ccccc2C[C@H]1C(=O)N[C@@H](C)C(N)=O (H-[Dmt]-[Tic]-Ala-NH2)")
195
>>> reading("Cc1cc(O)cc(C)c1C[C@H](N)C(=O)N1Cc2ccccc2C[C@H]1C(=O)N[C@@H](CC(=O)O)C(N)=O (H-[Dmt]-[Tic]-Asp-NH2)")
8880

* * *

Target: Mu-type opioid receptor (Rattus norvegicus)
Sequence (P33535 whole entry): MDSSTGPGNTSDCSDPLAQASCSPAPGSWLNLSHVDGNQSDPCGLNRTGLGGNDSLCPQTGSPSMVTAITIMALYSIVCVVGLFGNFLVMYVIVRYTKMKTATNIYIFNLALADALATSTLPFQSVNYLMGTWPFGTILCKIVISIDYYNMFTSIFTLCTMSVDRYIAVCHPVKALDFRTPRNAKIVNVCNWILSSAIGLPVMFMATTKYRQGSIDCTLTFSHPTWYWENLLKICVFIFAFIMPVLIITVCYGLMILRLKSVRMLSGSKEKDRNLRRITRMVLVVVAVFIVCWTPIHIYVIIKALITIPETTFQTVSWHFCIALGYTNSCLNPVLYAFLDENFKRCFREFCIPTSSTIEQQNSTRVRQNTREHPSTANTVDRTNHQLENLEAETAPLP
Test: Inhibition of [3H]DAGO binding to Opioid receptor mu 1 of rat brain P2 synaptosomes
pKi: −log10 of the molar value. Square brackets hold non-standard residues; d marks the D form. Peptide text beside a SMILES is read from it. Dmt = Cc1cc(O)cc(C)c1C[C@H](N)C(=O)O; Tic = O=C(O)[C@@H]1Cc2ccccc2CN1
METRIC_NAME: pKi

>>> reading("Cc1cc(O)cc(C)c1C[C@H](N)C(=O)N1Cc2ccccc2C[C@H]1C(=O)N[C@@H](Cc1nc2ccccc2[nH]1)C(=O)O")
7.66
>>> reading("Cc1cc(O)cc(C)c1C[C@H](N)C(=O)N1Cc2ccccc2C[C@H]1C(=O)N[C@@H](CC(N)=O)C(=O)O (H-[Dmt]-[Tic]-Asn-OH)")
7.10
>>> reading("C[C@@H](NC(=O)[C@@H](N)Cc1ccc(O)cc1)C(=O)N[C@@H](Cc1ccccc1)C(=O)NCC(=O)N[C@@H](Cc1ccc(O)cc1)C(=O)N1CCC[C@H]1C(=O)N[C@@H](CO)C(N)=O")
8.91
>>> reading("CC(C)[C@H](NC(=O)[C@H](CC(=O)O)NC(=O)[C@H](Cc1ccccc1)NC(=O)[C@H](C)NC(=O)[C@@H](N)Cc1ccc(O)cc1)C(=O)N[C@H](C(=O)NCC(=O)O)C(C)C")
6.57
